Origin of measurements: the Human Domainome abundance scans (Beltran et al. 2025)

# abundance fitness per entry
B1: Zinc finger MYM-type protein 6, residues 427 to 504; numbered along this chain, O95789 (parent)
chain: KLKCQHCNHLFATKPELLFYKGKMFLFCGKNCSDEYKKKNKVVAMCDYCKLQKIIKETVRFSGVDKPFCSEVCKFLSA

Variants of: B1
Test: abundance fitness (aPCA) (normalised: wild type 0, dead -1); higher = more abundant; growth selection in yeast, the domain comes from the species named
Conditions: Homo sapiens
MEASURED ATTRIBUTE: abundance fitness

INSERT INTO results (record_sequence, recorded_result) VALUES
  ('KLKCQHCNHLFATKPELLFYKGKMFLTCGKNCSDEYKKKNKVVAMCDYCKLQKIIKETVRFSGVDKPFCSEVCKFLSA [F27T]', -0.161),
  ('KLKCQHCNHLFATKPELLFYKGKMFLFCGKNCSDEYKKKSKVVAMCDYCKLQKIIKETVRFSGVDKPFCSEVCKFLSA [N40S]', 0.049),
  ('KLKCQHCNHLFATKPELLFYKGKMFLFCWKNCSDEYKKKNKVVAMCDYCKLQKIIKETVRFSGVDKPFCSEVCKFLSA [G29W]', -0.602),
  ('KLKCQHCNHLFATKPELLFYKGKMFLFCGKNCSDEYKKKNKVVAMCDYCGLQKIIKETVRFSGVDKPFCSEVCKFLSA [K50G]', -0.228),
  ('KLKCQHCNHLFATKPELLFYKGKMFLFCRKNCSDEYKKKNKVVAMCDYCKLQKIIKETVRFSGVDKPFCSEVCKFLSA [G29R]', -0.104),
  ('KLKCQHCNHLFATKPELLFYKLKMFLFCGKNCSDEYKKKNKVVAMCDYCKLQKIIKETVRFSGVDKPFCSEVCKFLSA [G22L]', -0.231),
  ('KLKCQHCNHLFATKPELLFYKGKMFLFCGKNCSDEYKKKNKVVAMCDYCKLQKIPKETVRFSGVDKPFCSEVCKFLSA [I55P]', 0.281),
  ('KLKCQHCNHLFATKPELLFYKGVMFLFCGKNCSDEYKKKNKVVAMCDYCKLQKIIKETVRFSGVDKPFCSEVCKFLSA [K23V]', -0.091),
  ('KLKCQHCNHLFATKPELLFYKGKMFLFCGKNCSDEYKKKNKVVAMCDYCKLQKIIKETVRFSGVDKPFCSEVMKFLSA [C73M]', -0.142),
  ('KLKCQHCNHLFATKPELLFYKGKMFLFCGKNCSDEYKKKNKVVAMCDYCKLQKIIKETVDFSGVDKPFCSEVCKFLSA [R60D]', 0.342),
  ('KLKCQHCNHLFATKPELLFYKGKMFLFCGKNCSDEYKKKNKVNAMCDYCKLQKIIKETVRFSGVDKPFCSEVCKFLSA [V43N]', 0.239),
  ('KLKCQHCNHLFATKPELLFYKGKMFLFCGKNCSDEYKKKNKVVAMCDYCKLQKIIKETVRFSGVDKPFCSEVCKQLSA [F75Q]', 0.096),
  ('KLKCQHCNHLFATKPELLFYKGKMFLFCGKNCSDEYKKKNKVVAMCDYCKLQKIIKEKVRFSGVDKPFCSEVCKFLSA [T58K]', 0.055),
  ('KLKCQHCNHLFATKPELLFYKGKMFLFCGKNCSDEYKKKNKVVAMCDYCKLQKIIKETVRFSGVDKPFRSEVCKFLSA [C69R]', -0.602),
  ('KLKCQHCNHLFATKPELLFYKGKMFLFCGKNCSDEYKKKNKVVAMCDYCKLQKIIKELVRFSGVDKPFCSEVCKFLSA [T58L]', -0.546),
  ('KLKCQHCNHLFATKPELLFYKGKMFLFCGKNCSDQYKKKNKVVAMCDYCKLQKIIKETVRFSGVDKPFCSEVCKFLSA [E35Q]', -0.082),
  ('KLKCQHCNHLFATKPELLFYKGKMFLFCGKNCSDEYKKKNKVVAMCDYCKLQKIIKETVRFSGVDKPFMSEVCKFLSA [C69M]', -0.443),
  ('KLKCQHCNHLFATKPELLFYKGKMFLFCGKNCSDEYKKKNKVVAMTDYCKLQKIIKETVRFSGVDKPFCSEVCKFLSA [C46T]', -0.311),
  ('KLKCQHCNHLFATKPELLFYKGKMFLFCGKNCSDEYKKKNKVVAMCDYCKLQKIIKETVQFSGVDKPFCSEVCKFLSA [R60Q]', 0.014),
  ('KLKCQHCNHLFATKPELLFYKGKMFGFCGKNCSDEYKKKNKVVAMCDYCKLQKIIKETVRFSGVDKPFCSEVCKFLSA [L26G]', 0.125),
  ('KLKCQHCNHLFATKPELLFYKGKMFLFCGKNCSTEYKKKNKVVAMCDYCKLQKIIKETVRFSGVDKPFCSEVCKFLSA [D34T]', -0.133),
  ('KLKCQHCNHLFATKPELLFYKGKMFLFCGKNCSDEYKKKNKVVAMCDYCKLPKIIKETVRFSGVDKPFCSEVCKFLSA [Q52P]', 0.108),
  ('KLKCQHCNHLFATKPELLFYKGKMFLFCGKNCSDEYRKKNKVVAMCDYCKLQKIIKETVRFSGVDKPFCSEVCKFLSA [K37R]', -0.046),
  ('KLKCQHCNHLFATKPELLFYKGKMFLFCGKNCSDEYKKKNKVVAMCDYCKWQKIIKETVRFSGVDKPFCSEVCKFLSA [L51W]', -0.806),
  ('KLKCQHCNHLFATKPELLFYKGKMFLFCGKNCSDEYKKKNKVVAMCDYCKDQKIIKETVRFSGVDKPFCSEVCKFLSA [L51D]', 0.345),
  ('KLKCQHCNHLFATKPELLFYKGKMFLFCGKNCSDEYKKKNKVVAMCDYCKLQKIIKETVRFSGVAKPFCSEVCKFLSA [D65A]', -0.226),
  ('KLKCQHCNHLFATKPELLFYKGKMFLFCGKNCSDEYKKKNKVVAMCDYCKLQKIIKHTVRFSGVDKPFCSEVCKFLSA [E57H]', 0.272),
  ('KLKCQHCNHLFATKPELLFYKGKMFLFCGKNCSDEYKKKKKVVAMCDYCKLQKIIKETVRFSGVDKPFCSEVCKFLSA [N40K]', -0.105),
  ('KLKCQHCNHLFATKPELLFYKGKMFLFCGKNCSDEYKKKNKVVAMCDYCKLQKIIKETVSFSGVDKPFCSEVCKFLSA [R60S]', 0.39),
  ('KLKCQHCNHLFATKPELLFYKQKMFLFCGKNCSDEYKKKNKVVAMCDYCKLQKIIKETVRFSGVDKPFCSEVCKFLSA [G22Q]', -0.011),
  ('KLKCQHCNHLFATKPELLFYKGKMFLFCGKNCSDEQKKKNKVVAMCDYCKLQKIIKETVRFSGVDKPFCSEVCKFLSA [Y36Q]', -0.13),
  ('KLKCQHCNHLFATKPELLFYKGKMFLFCGKNCSDEYKKKNKVVAMCDYCKLQKIIKETVRFSGVDKWFCSEVCKFLSA [P67W]', -0.088),
  ('KLKCQHCNHLFATKPELLFYKGKMFLFCGKLCSDEYKKKNKVVAMCDYCKLQKIIKETVRFSGVDKPFCSEVCKFLSA [N31L]', -0.067),
  ('KLKCQHCNHLFATKPELLFYKGKMFLFCGKNCSDEYKKKNKVVAMCDYCKLQKIIKETVRFSGCDKPFCSEVCKFLSA [V64C]', -0.432),
  ('KLKCQHCNHLFATKPELLFYKGAMFLFCGKNCSDEYKKKNKVVAMCDYCKLQKIIKETVRFSGVDKPFCSEVCKFLSA [K23A]', -0.045),
  ('KLKCQHCNHLFATKPELLFYKGKMFLFCGKNCSDEYKKKNKVVAMCDYCKLQKIIKETKRFSGVDKPFCSEVCKFLSA [V59K]', -0.051),
  ('KLKCQHCNHLFATKPELLFYKGKMFLFCGKNCSDEYKKKNKVVAMCDYCKGQKIIKETVRFSGVDKPFCSEVCKFLSA [L51G]', 0.484),
  ('KLKCQHCNHLFATKPELLFYKGKMFLFFGKNCSDEYKKKNKVVAMCDYCKLQKIIKETVRFSGVDKPFCSEVCKFLSA [C28F]', -0.855),
  ('KLKCQHCNHLFATKPELLFYKGKMFDFCGKNCSDEYKKKNKVVAMCDYCKLQKIIKETVRFSGVDKPFCSEVCKFLSA [L26D]', -0.066),
  ('KLKCQHCNHLFATKPELLFYKGKMFLFCGKNWSDEYKKKNKVVAMCDYCKLQKIIKETVRFSGVDKPFCSEVCKFLSA [C32W]', -0.861),
  ('KLKCQHCNHLFATKPELLFYKGKMFLFCGKNCSDEYKKKNKVVAMCDYCKLQKIIKETVRFSGVDKPFCSHVCKFLSA [E71H]', -0.09),
  ('KLKCQHCNHLFATKPELLFYKGKMFLFCGKNCSDEYKKKNKVVAMCDYCKLQKIIKETVRFSGVDVPFCSEVCKFLSA [K66V]', 0.542),
  ('KLKCQHCNHLFATKPELLFYKGKMFLFCGKNCSDEYKKKNKVVAMCDYCHLQKIIKETVRFSGVDKPFCSEVCKFLSA [K50H]', -0.427),
  ('KLKCQHCNHLFATKPELLFYKGKMFLFCGKNCSDEYKLKNKVVAMCDYCKLQKIIKETVRFSGVDKPFCSEVCKFLSA [K38L]', -0.088),
  ('KLKCQHCNHLFATKPELLFYKGKMFLFCGKNCSDEYKKKNKVVPMCDYCKLQKIIKETVRFSGVDKPFCSEVCKFLSA [A44P]', -0.604),
  ('KLKCQHCNHLFATKPELLFYKGKMFLFWGKNCSDEYKKKNKVVAMCDYCKLQKIIKETVRFSGVDKPFCSEVCKFLSA [C28W]', -1);
